System: K-562 leukemia
ASSAY: NCI tumour cell line growth inhibition, 48 h
Recorded measurements of TGI, one per entry
MEASURED_METRIC: TGI

| COMPOUND | MEASURED_METRIC | ENDPOINT_RESULT |
| --- | --- | --- |
| N#CC1(Cc2ccccc2Cl)c2ccccc2C=CN1C(=O)c1ccccc1 (configuration not stated) | TGI | > 100 µM |
| Cc1cc2nc(N)n[n+]([O-])c2cc1C | TGI | > 100 µM |
| CC(CC(C)[C@H]1CCC2[C@H]3C(CC[C@@]21C)[C@@]1(C)CCC(O)C[C@H]1C[C@@H]3O)C(=O)O (some centres not stated) | TGI | > 100 µM |
| CO/C=C(/C(=O)OC)c1ccccc1[C@H]1C[C@@H]1c1ccc(OC)cc1 | TGI | > 100 µM |
| O=C1C=Cc2cc3ccccc3c3cccc1c23 | TGI | > 100 µM |
| O=C(c1ccc(Cl)cc1)N(C(=S)N1CCN(c2ccccc2)CC1)C1CCCCC1 | TGI | > 100 µM |
| COc1ccc(-n2cc(-c3ccc(Cl)cc3)[nH]c2=S)cc1Cl | TGI | > 100 µM |
| CC(=N\O)/C(C)=N/O.CC(=N\O)/C(C)=N/O.[Pd] | TGI | > 10 µM |
| O=C(/C=C/c1ccco1)c1ccc(Nc2ccnc3cc(Cl)ccc23)cc1 | TGI | > 100 µM |
| O=C(NCCc1ccc(F)cc1)c1cc(/C=C/c2cc(O)ccc2O)ccc1O | TGI | > 29.2 µM |
| OCCOCn1nc(-c2ccccc2)nc1-c1cnccn1 | TGI | > 100 µM |
| COC(=O)C1=C(SC)SC2(C(=O)OC)C3C=C(C)C4C(N13)C42C(=O)OC (configuration not stated) | TGI | > 100 µM |
| COc1c(Cl)ccc(Cl)c1-c1nnc(-c2c(Cl)c(Cl)c(Cl)c(Cl)c2-c2nc3ccc(C(=O)c4ccccc4)cc3[nH]2)o1 | TGI | > 100 µM |
| NC(N)=Nc1nc2cc(N)ccc2o1 | TGI | > 100 µM |
| CN1CCN(c2nc(NCCNc3ccnc4cc(Cl)ccc34)c3ccccc3n2)CC1 | TGI | 3.82 µM |
| Cc1cc(C)c(-c2noc(-c3ccc(Cl)cc3)c2C2=NCCN2)c(C)c1 | TGI | 37.4 µM |
| COc1ccc(NC(=O)c2cc(NC(=O)/C=C/c3ccccc3)c(OC)c(OC)c2)cc1 | TGI | > 100 µM |
| N#CC1=C(N)Oc2c(sc3c(F)cccc23)C1c1ccc(Cl)cc1 (configuration not stated) | TGI | 16.3 µM |
| Cc1cc([C@H](C#N)c2nc3ccccc3s2)nc(Cl)n1 | TGI | > 100 µM |
| CS(=O)(=O)c1nc(-c2cc3c(c(S(C)(=O)=O)n2)CCC3)cc2c1CCC2 | TGI | > 100 µM |
| COC(=O)c1ccc2c(c1)[n+](=O)c(C(C)=O)c(C(F)(F)F)n2[O-] | TGI | 7.7 µM |
| O=C1CCCn2c3ccccc3c3ccnc1c32 | TGI | > 100 µM |
